Where do the numbers come from? From patent US20240285646A1.

test-method-notes: Phase 1A pharmacokinetics of oral NNI-362 in lipid-based formulation (Cohorts F and G)
Assay type: in vivo, human
run-parameters: human, plasma, po, 120 mg, Cohort F, 120 mg oral, MAD, lipid formulation, cohort mean
readout-name: MRT inf (h)
Kindly answer with a numeric value in h, unit omitted.

INPUT: Give the measured MRT inf of CCOc1ccccc1NC(=S)N1CCCN(c2nc3cc(C)c(C)cc3cc2C#N)CC1 [NNI-362] .
OUTPUT: 19.2

###

test-method-notes: Phase 1A pharmacokinetics of oral NNI-362 in lipid-based formulation (Cohorts F and G)
Format: in vivo, human
run-parameters: human, plasma, po, 240 mg, Cohort G, 240 mg oral, MAD, lipid formulation, cohort mean
readout-name: AUC(0-t) (ng·h/mL)
Express your answer in ng·h/mL, writing the number without its unit.

INPUT: Can you share its AUC(0-t)? I mean this compound: CCOc1ccccc1NC(=S)N1CCCN(c2nc3cc(C)c(C)cc3cc2C#N)CC1
OUTPUT: 2.04

###

test-method-notes: Phase 1A pharmacokinetics of oral NNI-362 in lipid-based formulation (Cohorts F and G)
Type: in vivo, human
run-parameters: human, plasma, po, 120 mg, Cohort F, 120 mg oral, MAD, lipid formulation, cohort mean
readout-name: AUC(0-inf) (ng·h/mL)
A number alone suffices; assume ng·h/mL.

INPUT: Would you mind telling me what AUC(0-inf) value was observed for CCOc1ccccc1NC(=S)N1CCCN(c2nc3cc(C)c(C)cc3cc2C#N)CC1 ?
OUTPUT: 3.43

###

test-method-notes: Phase 1A pharmacokinetics of oral NNI-362 in lipid-based formulation (Cohorts F and G)
Format: in vivo, human
run-parameters: oral; Formulation F2, Cohort F, 120 mg single dose, Day 1, K3 EDTA human plasma, patient SRI-F-005, 4 h
readout-name: concentration at 4 h (ng/mL)
Return type: number; implicit unit ng/mL.

INPUT: Would you kindly share the measured concentration at 4 h for CCOc1ccccc1NC(=S)N1CCCN(c2nc3cc(C)c(C)cc3cc2C#N)CC1 ?
OUTPUT: 0.0253

###

test-method-notes: Phase 1A pharmacokinetics of oral NNI-362 in lipid-based formulation (Cohorts F and G)
Format: in vivo, human
run-parameters: human, plasma, po, 120 mg, Cohort F, 120 mg oral, SAD, lipid formulation, individual subjects
readout-name: half-life (h)
The reply should contain only the number, in h.

INPUT: What half-life value was documented for this compound, CCOc1ccccc1NC(=S)N1CCCN(c2nc3cc(C)c(C)cc3cc2C#N)CC1 ?
OUTPUT: 4.45
